assay: log P by HPLC on reversed-phase C18 columns (OECD Guideline 117); type: physicochemical; conditions: method [b];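 as to logP[b]: method b is the neutral LC-MS method at pH 7.8 with ammonium hydrogencarbonate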
Parameter: logP[b]. Scope: all listed entries.

[
  {
    "MOLECULE": "CN(C(=O)c1cnc([S+]([O-])c2cccc(C(F)(F)F)c2)n1C)c1ccc[n+]([O-])c1 (stereo not drawn) [I-A-95]",
    "logP[b]": 1.39
  },
  {
    "MOLECULE": "Cc1cccc(C)c1CSc1ncc(C(=O)N(C)c2cccnc2)n1C [I-A-129]",
    "logP[b]": 2.44
  },
  {
    "MOLECULE": "CN(C(=O)c1cnc(SCc2c(Cl)cccc2Cl)n1C)c1cccnc1 [I-A-125]",
    "logP[b]": 2.28
  }
]

---

test: log P by HPLC on reversed-phase C18 columns (OECD Guideline 117); assay type: physicochemical; conditions: method [a]

[
  {
    "COMPOUND": "CN(C)C(=O)CSc1ncc(C(=O)N(C)c2cccnc2)n1C",
    "logP[a]": 0.59
  },
  {
    "COMPOUND": "CN(C(=O)c1cnc([S+]([O-])c2ccc(F)cc2)n1C)c1cccnc1 (stereo not drawn)",
    "logP[a]": 1.22
  },
  {
    "COMPOUND": "CN(C(=O)c1cnc(Sc2ccc(C(C)(C)C)cc2)n1C)c1cccnc1",
    "logP[a]": 2.75
  }
]

---

assay: log P by HPLC on reversed-phase C18 columns (OECD Guideline 117); format: physicochemical; details: method [b];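 as to logP[b]: method b is the neutral LC-MS method at pH 7.8 with ammonium hydrogencarbonate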
Everything with logP[b] lower than 2 is f; everything else, including exactly 2, is t.

[
  {
    "COMPOUND_STRUCTURE": "CC(C)Sc1ncc(C(=O)N(C)c2cccnc2)n1C",
    "ASSIGNED_LABEL": "f"
  },
  {
    "COMPOUND_STRUCTURE": "CN(C(=O)c1cnc(Sc2ncc(-c3ccccc3)n2C)n1C)c1cccnc1",
    "ASSIGNED_LABEL": "f"
  },
  {
    "COMPOUND_STRUCTURE": "CCn1c(Sc2ncc(C(=O)N(C)c3cccnc3)n2C)nnc1C(F)(F)F",
    "ASSIGNED_LABEL": "f"
  },
  {
    "COMPOUND_STRUCTURE": "CN(C(=O)c1cnc(SC2CCCCC2)n1C)c1cccnc1",
    "ASSIGNED_LABEL": "t"
  },
  {
    "COMPOUND_STRUCTURE": "CN(C)C(=O)c1ccccc1Sc1ncc(C(=O)N(C)c2cccnc2)n1C",
    "ASSIGNED_LABEL": "f"
  },
  {
    "COMPOUND_STRUCTURE": "COc1cc(OC)nc(Sc2ncc(C(=O)N(C)c3cccnc3)n2C)n1",
    "ASSIGNED_LABEL": "f"
  }
]

---

test: log P by HPLC on reversed-phase C18 columns (OECD Guideline 117); format: physicochemical; conditions: method [b];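 as to logP[b]: method b is the neutral LC-MS method at pH 7.8 with ammonium hydrogencarbonate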
Parameter: logP[b]. Scope: all listed entries.

[
  {
    "COMPOUND": "CCSCCSc1ncc(C(=O)N(C)c2cccnc2)n1C [I-A-14]",
    "logP[b]": 1.87
  },
  {
    "COMPOUND": "CN(C(=O)c1cnc(SCC(=O)C2CC2)n1C)c1cccnc1 [I-A-31]",
    "logP[b]": 1.28
  },
  {
    "COMPOUND": "CN(C(=O)c1cnc(SCc2ccncc2)n1C)c1cccnc1 [I-A-116]",
    "logP[b]": 1.11
  }
]

---

Experiment: log P by HPLC on reversed-phase C18 columns (OECD Guideline 117)
Assay type: physicochemical
Conditions: method [a]
Method: The log P values were determined in accordance with OECD Guideline 117 (EC Directive 92/69/EEC) by HPLC (high-performance liquid chromatography) using reversed-phase (RP) columns (C18), by the following methods: [a] The LC-MS determination in the acidic range was carried out at pH 2.7 with 0.1% aqueous formic acid and acetonitrile (contains 0.1% formic acid) as mobile phases; linear gradient from 10% acetonitrile to 95% acetonitrile. [b] […]

[
  {
    "COMPOUND": "COc1ccc(S(=O)(=O)c2ncc(C(=O)N(C)c3cccnc3)n2C)cc1 [I-A-81]",
    "logP[a]": 1.53
  },
  {
    "COMPOUND": "CCOC(=O)CSc1ncc(C(=O)N(C)c2cccnc2)n1C [I-A-24]",
    "logP[a]": 1.20
  },
  {
    "COMPOUND": "CCn1c(C(=O)N(C)c2cccnc2)cnc1Sc1ncccn1 [I-A-146]",
    "logP[a]": 1.11
  },
  {
    "COMPOUND": "CN(C(=O)c1cnc(SCC(=O)C(C)(C)C)n1C)c1cccnc1 [I-A-28]",
    "logP[a]": 1.53
  },
  {
    "COMPOUND": "CN(C(=O)c1cnc(Sc2nnc(C(F)(F)F)n2C)n1C)c1cccnc1 [I-A-138]",
    "logP[a]": 1.12
  },
  {
    "COMPOUND": "CN(C(=O)c1cnc(Sc2ccccc2)n1C)c1cccnc1 [I-A-11]",
    "logP[a]": 1.55
  }
]
